Tested on: normal NK cells expanded with K562-aAPC
Assay: drug sensitivity score (DSS) (DSS units); higher = more sensitive; extreme values may be limits of the assay
Conditions: 72 h; IL-2 2.5 ng/mL
Listed here: items and their measured drug sensitivity score.
property.name: drug sensitivity score

- compound: "Nc1ncnc2c1nc(Cl)n2[C@@H]1O[C@H](CO)[C@@H](O)[C@H]1O [8-chloro-adenosine] (max concentration tested 50000 nM)"
  test.system: "normal NK cells expanded with K562-aAPC"
  property.name: "drug sensitivity score"
  observed.value: 8.27
- compound: "Oc1ncc(N(CCCl)CCCl)c(O)n1 [Uramustine] (max concentration tested 10000 nM)"
  test.system: "normal NK cells expanded with K562-aAPC"
  property.name: "drug sensitivity score"
  observed.value: 0.53
- compound: "CCN(CC)C(=S)SSC(=S)N(CC)CC [Disulfiram] (max concentration tested 100000 nM)"
  test.system: "normal NK cells expanded with K562-aAPC"
  property.name: "drug sensitivity score"
  observed.value: 29.9
- compound: "COc1cccc2c1C(=O)c1c(O)c3c(c(O)c1C2=O)C[C@@](O)(C(C)=O)C[C@@H]3O[C@H]1C[C@H](N)[C@H](O)[C@H](C)O1 [Daunorubicin] (max concentration tested 1000 nM)"
  test.system: "normal NK cells expanded with K562-aAPC"
  property.name: "drug sensitivity score"
  observed.value: 14.4
- compound: "CN(c1ncccc1CNc1nc(Nc2ccc3c(c2)CC(=O)N3)ncc1C(F)(F)F)S(C)(=O)=O (max concentration tested 10000 nM)"
  test.system: "normal NK cells expanded with K562-aAPC"
  property.name: "drug sensitivity score"
  observed.value: 6.5
- compound: "O=c1[nH]c(=O)n([C@H]2C[C@H](O)[C@@H](CO)O2)cc1F [Floxuridine] (max concentration tested 10000 nM)"
  test.system: "normal NK cells expanded with K562-aAPC"
  property.name: "drug sensitivity score"
  observed.value: 10.9
